Tested on: DLD1 NRF2-WT
PROCEDURE SUMMARY: drug sensitivity score (DSS) cytotoxicity (DSS score); higher = more toxic; extreme values may be limits of the assay
STATED CONDITIONS: 72 h; CellTox Green cytotoxicity
MEASURED ATTRIBUTE: drug sensitivity score
// return a plain number; no unit text

>  <ITEM SMILES>
C=CC[C@@H]1/C=C(\C)C[C@H](C)C[C@H](OC)[C@H]2O[C@@](O)(C(=O)C(=O)N3CCCC[C@H]3C(=O)O[C@H](/C(C)=C/[C@@H]3CC[C@@H](O)[C@H](OC)C3)[C@H](C)[C@@H](O)CC1=O)[C@H](C)C[C@@H]2OC

>  <ASSAYED SYSTEM>
DLD1 NRF2-WT

>  <drug sensitivity score>
0

$$$$

drug sensitivity score measured on "CN(C(=O)c1ccc(F)cc1C(F)(F)F)C1CCN(c2nnc(-c3ccnn3C)c3ccccc23)CC1" = 0

drug sensitivity score measured on "O=C(Nc1c[nH]nc1-c1nc2ccc(CN3CCOCC3)cc2[nH]1)NC1CC1" = 2.6
